- TEST_TARGET: Breakpoint cluster region protein (Homo sapiens, UniProt P11274); also: in the data inactive means no Kd found up to 30 µM
- Sequence (P11274 whole entry): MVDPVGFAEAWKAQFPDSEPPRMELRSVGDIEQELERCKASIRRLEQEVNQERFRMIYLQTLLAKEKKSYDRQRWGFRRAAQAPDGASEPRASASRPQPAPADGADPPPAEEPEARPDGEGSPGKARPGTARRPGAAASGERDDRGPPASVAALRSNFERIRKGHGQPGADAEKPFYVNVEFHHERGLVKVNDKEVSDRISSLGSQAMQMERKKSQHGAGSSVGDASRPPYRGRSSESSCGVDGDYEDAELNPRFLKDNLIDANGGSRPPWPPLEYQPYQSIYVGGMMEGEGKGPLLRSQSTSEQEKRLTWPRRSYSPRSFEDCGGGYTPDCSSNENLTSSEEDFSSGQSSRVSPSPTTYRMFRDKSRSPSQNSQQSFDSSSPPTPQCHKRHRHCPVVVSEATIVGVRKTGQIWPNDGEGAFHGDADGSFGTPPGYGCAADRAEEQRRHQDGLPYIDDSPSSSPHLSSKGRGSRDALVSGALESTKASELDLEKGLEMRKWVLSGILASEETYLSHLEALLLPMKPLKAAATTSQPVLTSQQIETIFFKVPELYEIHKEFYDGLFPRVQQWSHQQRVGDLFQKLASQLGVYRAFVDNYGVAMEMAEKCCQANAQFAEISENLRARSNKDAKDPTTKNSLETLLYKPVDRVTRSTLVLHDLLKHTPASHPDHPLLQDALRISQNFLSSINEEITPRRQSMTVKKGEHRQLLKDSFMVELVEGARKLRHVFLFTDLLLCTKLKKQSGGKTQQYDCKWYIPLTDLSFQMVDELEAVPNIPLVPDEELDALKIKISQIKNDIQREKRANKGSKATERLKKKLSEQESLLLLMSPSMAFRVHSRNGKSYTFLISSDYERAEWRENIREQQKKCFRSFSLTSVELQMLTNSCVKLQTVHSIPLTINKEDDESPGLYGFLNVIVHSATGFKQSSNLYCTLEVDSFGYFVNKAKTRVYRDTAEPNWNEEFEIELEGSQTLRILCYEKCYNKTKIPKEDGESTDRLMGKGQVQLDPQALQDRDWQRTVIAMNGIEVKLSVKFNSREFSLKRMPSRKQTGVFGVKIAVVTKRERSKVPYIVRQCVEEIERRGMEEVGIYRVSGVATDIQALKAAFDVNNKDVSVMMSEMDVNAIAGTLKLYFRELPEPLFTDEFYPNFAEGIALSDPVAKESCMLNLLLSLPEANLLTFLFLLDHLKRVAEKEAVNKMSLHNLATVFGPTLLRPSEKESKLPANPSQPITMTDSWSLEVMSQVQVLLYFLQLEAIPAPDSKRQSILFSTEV
Active and inactive are the calls of the source.
Bench note: report the call from Y (active), N (inactive)

Data request: Which outcome was entered for the compound COc1cc(OC)c(/C=C/S(=O)(=O)Cc2ccc(OC)c(NCC(=O)O)c2)c(OC)c1 in this test?
Data returned: N

Data request: Which outcome was entered for the compound OCCn1cc(-c2cnc3nnn(Cc4ccc5ncccc5c4)c3n2)cn1 in this test?
Data returned: N

Data request: Which outcome was entered for the compound Cc1cc(-c2cc(O)ccc2Cl)cc2nnc(Nc3ccc(OCCN4CCCC4)cc3)nc12 in this test?
Data returned: Y

Data request: Which outcome was entered for the compound CNS(=O)(=O)Nc1nccc(Cc2c(C)c3ccc(Oc4ncccn4)cc3oc2=O)c1F in this test?
Data returned: N

Data request: Which outcome was entered for the compound CCn1c(=O)c(-c2cc[nH]n2)cc2c(C)nc(N)nc21 in this test?
Data returned: N

====

- TEST_TARGET: Protein kinase C delta type (Homo sapiens, UniProt Q05655); also: in the data inactive means no Kd found up to 30 µM
- Sequence (Q05655 whole entry): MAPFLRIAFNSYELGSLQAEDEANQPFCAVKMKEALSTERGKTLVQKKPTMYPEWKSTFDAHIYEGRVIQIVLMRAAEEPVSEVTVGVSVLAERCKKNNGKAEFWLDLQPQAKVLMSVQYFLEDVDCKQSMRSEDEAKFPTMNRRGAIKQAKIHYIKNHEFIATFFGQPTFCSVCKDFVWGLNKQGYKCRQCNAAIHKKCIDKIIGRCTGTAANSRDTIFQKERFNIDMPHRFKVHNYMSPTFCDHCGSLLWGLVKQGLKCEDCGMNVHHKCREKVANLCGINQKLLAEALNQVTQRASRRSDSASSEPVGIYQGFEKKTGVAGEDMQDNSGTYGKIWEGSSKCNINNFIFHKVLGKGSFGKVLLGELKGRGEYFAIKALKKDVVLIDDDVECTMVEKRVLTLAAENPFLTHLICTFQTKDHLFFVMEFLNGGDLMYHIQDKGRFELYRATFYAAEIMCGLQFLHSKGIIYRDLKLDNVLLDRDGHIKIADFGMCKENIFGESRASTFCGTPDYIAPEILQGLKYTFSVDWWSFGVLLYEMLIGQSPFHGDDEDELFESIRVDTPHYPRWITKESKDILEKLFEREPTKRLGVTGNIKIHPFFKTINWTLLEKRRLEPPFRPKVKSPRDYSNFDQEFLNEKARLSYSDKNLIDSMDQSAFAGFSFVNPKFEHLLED
Activity calls are given as the source filed them.
Bench note: report the call from Y = active, N = inactive

Data request: Which outcome was entered for the compound CCS(=O)(=O)N1CC(CC#N)(n2cc(-c3ncnc4[nH]ccc34)cn2)C1 [BARICITINIB] in this test?
Data returned: Y

Data request: Which outcome was entered for the compound OCCn1cc(-c2cnc3nnn(Cc4ccc5ncccc5c4)c3n2)cn1 [PF-04217903] in this test?
Data returned: N

Data request: Which outcome was entered for the compound CCN1CCN(Cc2ccc(-c3cc4c(N[C@H](C)c5ccccc5)ncnc4[nH]3)cc2)CC1 [AEE-788] in this test?
Data returned: N

Data request: Which outcome was entered for the compound CN1N=C(N)c2cn([C@@H]3O[C@H](COP(=O)(O)O)[C@@H](O)[C@H]3O)c3ncnc1c23 [TRICIRIBINE PHOSPHATE] in this test?
Data returned: N

Data request: Which outcome was entered for the compound CC[C@H](Nc1ncnc2[nH]cnc12)c1nc2cccc(F)c2c(=O)n1-c1ccccc1 [IDELALISIB] in this test?
Data returned: N

Data request: Which outcome was entered for the compound C[C@@H](c1ccc2nccn2c1)n1nnc2ncc(-c3cnn(C)c3)nc21 [SAVOLITINIB] in this test?
Data returned: N

Data request: Which outcome was entered for the compound COc1cc(CCc2cc(NC(=O)c3ccc(N4C[C@@H](C)N[C@@H](C)C4)cc3)n[nH]2)cc(OC)c1 [AZD-4547] in this test?
Data returned: N

Data request: Which outcome was entered for the compound O=C(c1ccc(F)c(F)c1Nc1ccc(I)cc1F)N1CC(O)([C@@H]2CCCCN2)C1 [COBIMETINIB] in this test?
Data returned: N

Data request: Which outcome was entered for the compound COc1cc(OC)c(/C=C/S(=O)(=O)Cc2ccc(OC)c(NCC(=O)O)c2)c(OC)c1 [RIGOSERTIB] in this test?
Data returned: N

Data request: Which outcome was entered for the compound CN(C)C(=O)c1cc2cnc(Nc3ccc(N4CCNCC4)cn3)nc2n1C1CCCC1 [RIBOCICLIB] in this test?
Data returned: N

Data request: Which outcome was entered for the compound Cc1c(F)cc(C(=O)NC2CC2)cc1-c1ccc(C(=O)NCC(C)(C)C)cn1 [LOSMAPIMOD] in this test?
Data returned: N

Data request: Which outcome was entered for the compound CCn1c(=O)c(-c2cc[nH]n2)cc2c(C)nc(N)nc21 [VOXTALISIB] in this test?
Data returned: N

Data request: Which outcome was entered for the compound C[C@@H]1CN(Cc2ccc(F)cc2)[C@@H](C)CN1C(=O)c1cc2c(C(=O)C(=O)N(C)C)cn(C)c2cc1Cl [TALMAPIMOD] in this test?
Data returned: N

Data request: Which outcome was entered for the compound CNC(=O)c1cc(Oc2ccc(NC(=O)Nc3ccc(Cl)c(C(F)(F)F)c3)c(F)c2)ccn1 [REGORAFENIB] in this test?
Data returned: N

Data request: Which outcome was entered for the compound Cc1cc([C@@H](C)Nc2ccccc2C(=O)O)c2nc(N3CCOCC3)cc(=O)n2c1 [AZD-6482] in this test?
Data returned: N

Data request: Which outcome was entered for the compound Cc1ccc(NC(=O)c2ccc(CN3CC[C@H](N(C)C)C3)c(C(F)(F)F)c2)cc1Nc1nccc(-c2cncnc2)n1 [BAFETINIB] in this test?
Data returned: N

====

- TEST_TARGET: Serine/threonine-protein kinase D2 (Homo sapiens); also: in the data inactive means no Kd found up to 30 µM
- Sequence (Q9BZL6 whole entry): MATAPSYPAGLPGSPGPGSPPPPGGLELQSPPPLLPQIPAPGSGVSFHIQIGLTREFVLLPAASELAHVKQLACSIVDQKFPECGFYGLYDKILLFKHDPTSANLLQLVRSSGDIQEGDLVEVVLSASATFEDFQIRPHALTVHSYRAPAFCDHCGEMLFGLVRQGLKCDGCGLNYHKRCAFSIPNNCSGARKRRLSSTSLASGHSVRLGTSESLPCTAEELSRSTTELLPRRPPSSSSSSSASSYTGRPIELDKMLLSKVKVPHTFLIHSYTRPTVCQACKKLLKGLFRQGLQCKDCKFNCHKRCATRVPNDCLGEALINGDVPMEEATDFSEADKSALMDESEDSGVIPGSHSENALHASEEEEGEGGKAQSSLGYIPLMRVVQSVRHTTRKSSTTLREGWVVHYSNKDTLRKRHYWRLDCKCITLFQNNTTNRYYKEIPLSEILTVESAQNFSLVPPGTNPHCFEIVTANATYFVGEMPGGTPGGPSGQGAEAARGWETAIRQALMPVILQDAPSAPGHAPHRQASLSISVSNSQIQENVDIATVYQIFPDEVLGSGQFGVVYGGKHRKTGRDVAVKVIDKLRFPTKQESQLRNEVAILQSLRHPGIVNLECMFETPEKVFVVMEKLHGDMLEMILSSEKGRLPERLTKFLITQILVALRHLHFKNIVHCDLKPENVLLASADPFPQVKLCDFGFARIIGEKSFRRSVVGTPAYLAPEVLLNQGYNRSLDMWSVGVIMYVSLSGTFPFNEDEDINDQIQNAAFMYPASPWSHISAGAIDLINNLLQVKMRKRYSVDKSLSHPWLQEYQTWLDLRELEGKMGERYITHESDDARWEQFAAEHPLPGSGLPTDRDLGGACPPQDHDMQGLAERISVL
The source made the active and inactive calls.
Bench note: report the call from active, inactive

Data request: Which outcome was entered for the compound CN1CCC(COc2cnc(-c3cccc(Cn4nc(-c5cccc(C#N)c5)ccc4=O)c3)nc2)CC1 in this test?
Data returned: inactive

Data request: Which outcome was entered for the compound CC[C@H](Nc1ncnc2[nH]cnc12)c1nc2cccc(F)c2c(=O)n1-c1ccccc1 in this test?
Data returned: inactive

Data request: Which outcome was entered for the compound COC(=O)[C@@]1(O)C[C@H]2O[C@]1(C)n1c3ccccc3c3c4c(c5c6ccccc6n2c5c31)C(=O)NC4 [K-252A] in this test?
Data returned: active

Data request: Which outcome was entered for the compound COc1ccc(-c2ccc3c(N4CCOC[C@@H]4C)nc(N4CCOC[C@@H]4C)nc3n2)cc1CO in this test?
Data returned: inactive

Data request: Which outcome was entered for the compound OCCn1cc(-c2cnc3nnn(Cc4ccc5ncccc5c4)c3n2)cn1 in this test?
Data returned: inactive

Data request: Which outcome was entered for the compound Cc1ccc(-n2nc(C(C)(C)C)cc2NC(=O)NCc2cc(F)ccc2Oc2ccc3c(cnn3CCO)c2)cc1 in this test?
Data returned: inactive

Data request: Which outcome was entered for the compound C=CC(=O)N1CCC(Oc2cc3c(Nc4ccc(Cl)c(Cl)c4F)ncnc3cc2OC)CC1 in this test?
Data returned: inactive

Data request: Which outcome was entered for the compound CN(C)C(=O)c1cc2cnc(Nc3ccc(N4CCNCC4)cn3)nc2n1C1CCCC1 in this test?
Data returned: active

====

- TEST_TARGET: Activin receptor type-1 (Homo sapiens, UniProt Q04771); also: in the data inactive means no Kd found up to 30 µM
- Sequence (Q04771 whole entry): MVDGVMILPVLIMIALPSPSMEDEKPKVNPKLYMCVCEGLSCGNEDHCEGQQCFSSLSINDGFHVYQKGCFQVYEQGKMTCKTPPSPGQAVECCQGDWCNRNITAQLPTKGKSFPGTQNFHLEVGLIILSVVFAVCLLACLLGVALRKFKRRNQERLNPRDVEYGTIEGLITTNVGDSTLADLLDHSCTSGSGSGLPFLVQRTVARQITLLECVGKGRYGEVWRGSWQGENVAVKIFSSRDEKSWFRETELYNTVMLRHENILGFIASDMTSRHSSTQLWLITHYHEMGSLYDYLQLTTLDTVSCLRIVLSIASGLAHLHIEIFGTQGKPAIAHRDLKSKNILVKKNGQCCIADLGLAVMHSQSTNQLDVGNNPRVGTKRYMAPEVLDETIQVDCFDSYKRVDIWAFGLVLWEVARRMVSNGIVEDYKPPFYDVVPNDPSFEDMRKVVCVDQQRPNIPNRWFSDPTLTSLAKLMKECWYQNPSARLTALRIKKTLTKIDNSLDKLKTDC
Calls of active or inactive are those of the source.
Bench note: report the call from active, inactive

Data request: Which outcome was entered for the molecule COc1ccc(-c2ccc3c(N4CCOC[C@@H]4C)nc(N4CCOC[C@@H]4C)nc3n2)cc1CO in this test?
Data returned: inactive

Data request: Which outcome was entered for the molecule CC[C@@H]1C(=O)N(C)c2cnc(Nc3ccc(C(=O)N[C@H]4CC[C@H](N5CCN(CC6CC6)CC5)CC4)cc3OC)nc2N1C(C)C in this test?
Data returned: inactive

Data request: Which outcome was entered for the molecule CNC(=O)c1cc(Oc2ccc(NC(=O)Nc3ccc(Cl)c(C(F)(F)F)c3)c(F)c2)ccn1 in this test?
Data returned: inactive

Data request: Which outcome was entered for the molecule C=CC(=O)N1CCC(Oc2cc3c(Nc4ccc(Cl)c(Cl)c4F)ncnc3cc2OC)CC1 in this test?
Data returned: inactive

Data request: Which outcome was entered for the molecule C[C@@H](c1ccc2nccn2c1)n1nnc2ncc(-c3cnn(C)c3)nc21 in this test?
Data returned: inactive

Data request: Which outcome was entered for the molecule O=c1sn(-c2cccc3ccccc23)c(=O)n1Cc1ccccc1 in this test?
Data returned: inactive

Data request: Which outcome was entered for the molecule CNS(=O)(=O)Nc1nccc(Cc2c(C)c3ccc(Oc4ncccn4)cc3oc2=O)c1F in this test?
Data returned: inactive

Data request: Which outcome was entered for the molecule C[C@@H](Nc1cc(F)cc(F)c1)c1cc(C(=O)N(C)C)cc2c(=O)cc(N3CCOCC3)oc12 in this test?
Data returned: inactive

Data request: Which outcome was entered for the molecule CCCS(=O)(=O)Nc1ccc(F)c(C(=O)c2c[nH]c3ncc(-c4ccc(Cl)cc4)cc23)c1F in this test?
Data returned: inactive

Data request: Which outcome was entered for the molecule C1=C/COCc2cc(ccc2OCCN2CCCC2)Nc2nccc(n2)-c2cccc(c2)COC/1 in this test?
Data returned: active

Data request: Which outcome was entered for the molecule Cc1cc2c(F)c(Oc3ncnn4cc(OC[C@@H](C)OC(=O)[C@H](C)N)c(C)c34)ccc2[nH]1 [BRIVANIB ALANINATE] in this test?
Data returned: inactive

Data request: Which outcome was entered for the molecule Cc1ccc(S(=O)(=O)Nc2nc3ccccc3nc2Nc2ccc3nsnc3c2)cc1 in this test?
Data returned: inactive

Data request: Which outcome was entered for the molecule CNC(=O)CN1CCC(Oc2cc3c(Nc4cccc(Cl)c4F)ncnc3cc2OC)CC1 in this test?
Data returned: inactive

Data request: Which outcome was entered for the molecule Cn1cc(-c2ccc(F)c(C(F)(F)F)c2)nc1C1CCN(c2ncnc3[nH]ncc23)CC1 in this test?
Data returned: inactive

Data request: Which outcome was entered for the molecule CN(C)C(=O)c1cc2cnc(Nc3ccc(N4CCNCC4)cn3)nc2n1C1CCCC1 in this test?
Data returned: inactive

Data request: Which outcome was entered for the molecule COc1cc(N2CCC(N3CCN(C)CC3)CC2)ccc1Nc1ncnc(Nc2ccccc2S(=O)(=O)C(C)C)n1 in this test?
Data returned: inactive
